- Test system: ischemic heart isolated from white rat
- Measurement notes: Cardioprotective effect on isolated ischemic rat heart (Langendorff, 30 min global ischemia / 30 min reperfusion)
- Condition description: 10 μM; during 30 min global ischemia; first 5 mmHg increase in EDP
Measured parameter: TTC (time to induce contraction / time to contracture) (min)

* COC(OC)[C@]1(C)Oc2ccc(N)cc2[C@@H](n2c(=S)oc3ccccc32)[C@@H]1O [Example 20] | 21.3
* CC1(C)Oc2ccc(C#N)cc2[C@@H](NC(=NC#N)Nc2ccc(Cl)cc2)[C@@H]1O [BMS-180448, reference compound] | 27.8
* COC(OC)[C@]1(C)Oc2ccc(NC(=O)C(F)(F)F)cc2[C@H](n2c(=S)oc3ccccc32)[C@H]1O [Example 36] | 24.9
* COC(OC)[C@]1(C)Oc2ccc([N+](=O)[O-])cc2[C@H](n2c(=S)oc3ccc(Cl)cc32)[C@H]1O [Example 7] | 25.6
* COC(OC)[C@@]1(C)Oc2ccc([N+](=O)[O-])cc2[C@H](n2c(=S)oc3ccccc32)[C@H]1O [Example 3] | 26.6
* COC(OC)[C@]1(C)Oc2ccc([N+](=O)[O-])cc2[C@H](n2c(=S)oc3ccccc32)[C@H]1O [Example 1] | 25.3
* COC(OC)[C@]1(C)Oc2ccc([N+](=O)[O-])cc2[C@H](n2c(=S)oc3cccc(C)c32)[C@H]1O [Example 6] | 26.7

----------
- System: ischemic myocardial injury models prepared from white rats
- Measurement notes: Antiischemic activity in the anesthetized rat ischemic myocardial injury model (coronary occlusion 45 min / reperfusion 90 min)
- Assay type: in vivo
- Condition description: 0.3 mg/kg, intravenous (femoral vein), 30 min before occlusion
# Lookup of reported IZ/AAR(%) myocardial infarction size to area at risk keyed by entry
Measured parameter: IZ/AAR(%) myocardial infarction size to area at risk

- COc1ccc2oc(=S)n([C@H]3c4cc([N+](=O)[O-])ccc4O[C@@](C)(C(OC)OC)[C@@H]3O)c2c1 [Example 10]: 46.6%
- CC1(C)Oc2ccc(C#N)cc2[C@@H](NC(=NC#N)Nc2ccc(Cl)cc2)[C@@H]1O [BMS-180448, reference compound]: 39.1%
- COC(OC)[C@]1(C)Oc2ccc([N+](=O)[O-])cc2[C@H](n2c(=S)oc3cccc(C)c32)[C@H]1O [Example 6]: 42.5%
- COC(OC)[C@]1(C)Oc2ccc([N+](=O)[O-])cc2[C@H](n2c(=S)oc3ccccc32)[C@H]1O [Example 1]: 39.6%

----------
- System: ischemic heart isolated from white rat
- Measurement notes: Cardioprotective effect on isolated ischemic rat heart (Langendorff, 30 min global ischemia / 30 min reperfusion)
- Condition description: 10 μM; after reperfusion; baseline set at 5 mmHg
Overview of recorded EDP (left ventricular end diastolic pressure) for various compounds
Measured parameter: EDP (left ventricular end diastolic pressure) (mmHg)

* COC(OC)[C@]1(C)Oc2ccc([N+](=O)[O-])cc2[C@H](n2c(=S)oc3cc([N+](=O)[O-])ccc32)[C@H]1O | 27.0
* COC(OC)[C@]1(C)Oc2ccc([N+](=O)[O-])cc2[C@H](n2c(=S)oc3cccc(C)c32)[C@H]1O | 6.3
* COC(OC)[C@]1(C)Oc2ccc([N+](=O)[O-])cc2[C@H](n2c(=S)oc3ccccc32)[C@H]1O | 19.8
* COC(OC)[C@]1(C)Oc2ccc([N+](=O)[O-])cc2[C@H](n2c(=S)oc3ccc(C(F)(F)F)cc32)[C@H]1O | 13.3
* CC1(C)Oc2ccc(C#N)cc2[C@@H](NC(=NC#N)Nc2ccc(Cl)cc2)[C@@H]1O [BMS-180448, reference compound] | 16.5
* COc1ccc2oc(=S)n([C@H]3c4cc([N+](=O)[O-])ccc4O[C@@](C)(C(OC)OC)[C@@H]3O)c2c1 | 36.7
* COC(OC)[C@@]1(C)Oc2ccc([N+](=O)[O-])cc2[C@H](n2c(=S)oc3ccccc32)[C@H]1O | 15.3
* COC(OC)[C@]1(C)Oc2ccc(N)cc2[C@@H](n2c(=S)oc3ccccc32)[C@@H]1O | 43.3

Reference for the values: patent US7420060B2
